Reported values of protein stability index for individual entries
B1: ZNF511 (parent)
chain: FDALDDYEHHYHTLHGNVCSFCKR

Variants of: B1
procedure.summary: protein stability index of a GFP-peptide fusion (GPS, HEK-293T) (PSI 1-6); higher = more stable;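 further: lentivirally expressed fusions sorted by FACS into six bins by GFP to DsRed ratio, PSI derived from sequencing read proportions per bin multiplied by bin number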
reported.conditions: c terminus: a fixed tail appended
property: protein stability index

INSERT INTO results (mutant_code, reading) VALUES
  ('L14I', 3.92),
  ('V18W', 2.8),
  ('L4T', 4.44),
  ('E8T', 3.67),
  ('R24A', 3.58),
  ('Y7L', 3.54),
  ('S20M', 4.04),
  ('H12F', 2.9),
  ('N17K', 3.22),
  ('A3D', 3.72),
  ('L14Y', 3.81),
  ('A3K', 2.87),
  ('K23N', 3.96),
  ('H15E', 4.36),
  ('Y7V', 3.98),
  ('H15W', 3.3),
  ('F1Y', 3.59),
  ('H10T', 3.4),
  ('C19E', 3.21);
